Reported half-life values follow for various compounds
assay: Half life in rat at 10 mg/kg, iv; assay type: ADME, organism-based; conditions: in vivo
Lab book: enter the figure in h, no units written.

[
  {
    "structure notation": "Cc1ccc(OCC(F)(F)F)c(OCCN[C@H](C)Cc2cc(C(N)=O)c3c(ccn3CCCO)c2)c1",
    "numeric result": 1.1
  }
]

Moving on to another compound below.
# return recorded half-life for input C[C@H](Cc1cc2c(c(C(N)=O)c1)N(CCCO)CC2)NCCOc1cc(Cl)ccc1OCC(F)(F)F
1.63

* * *

experiment: Half life in rat at 20 mg/kg, po; assay type: ADME, organism-based; conditions: in vivo
Reported half-life values follow for various molecules
Lab book: enter the figure in h, no units written.

[
  {
    "structure notation": "Cc1ccc(OCC(F)(F)F)c(OCCN[C@H](C)Cc2cc(C(N)=O)c3c(ccn3CCCO)c2)c1",
    "half-life [h]": 1.22
  }
]

Moving on to another molecule below.
# return recorded half-life for input C[C@H](Cc1cc2c(c(C(N)=O)c1)N(CCCO)CC2)NCCOc1cc(Cl)ccc1OCC(F)(F)F
4.67
